Entries and their measured % inhibition ApPOL 90' 40 follow.
- system.name: P. falciparum apicoplast DNA polymerase (Pf-apPOL) (Plasmodium falciparum, UniProt Q8ILY1)
- Sequence (Q8ILY1 entry or part of it): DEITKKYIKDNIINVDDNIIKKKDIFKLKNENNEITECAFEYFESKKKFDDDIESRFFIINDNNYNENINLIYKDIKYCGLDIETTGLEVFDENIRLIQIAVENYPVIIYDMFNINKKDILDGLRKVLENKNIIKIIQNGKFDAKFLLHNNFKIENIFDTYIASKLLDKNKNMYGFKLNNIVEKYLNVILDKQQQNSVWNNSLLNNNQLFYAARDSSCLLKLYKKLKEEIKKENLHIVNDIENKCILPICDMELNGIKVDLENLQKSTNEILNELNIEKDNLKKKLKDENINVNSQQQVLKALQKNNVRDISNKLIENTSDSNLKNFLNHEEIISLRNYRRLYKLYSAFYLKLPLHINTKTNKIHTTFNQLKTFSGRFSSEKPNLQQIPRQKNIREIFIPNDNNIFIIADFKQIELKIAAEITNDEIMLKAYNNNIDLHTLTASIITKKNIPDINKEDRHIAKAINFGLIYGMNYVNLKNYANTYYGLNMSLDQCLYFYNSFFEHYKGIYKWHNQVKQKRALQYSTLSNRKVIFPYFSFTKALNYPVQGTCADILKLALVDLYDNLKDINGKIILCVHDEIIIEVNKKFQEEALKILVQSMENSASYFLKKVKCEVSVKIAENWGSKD
- measurement.description: Fluorescence-based high-throughput DNA polymerase assay (molecular beacon), primary screen and dose-response
- Assay type: biochemical
- experimental.context: DRC-2; read at 90'; concentration 40
Report the figure in % without appending any unit label.

Observe how each entry below is paired with its result.
compound: CC(=O)OCC1=C(C(=O)[O-])N2C(=O)[C@@H](NC(=O)Cc3cccs3)[C@H]2SC1.[Na+]
% inhibition ApPOL 90' 40, %: 39
//
compound: CCCc1ccc(Oc2coc3cc(OC)ccc3c2=O)cc1
% inhibition ApPOL 90' 40, %: 25
//
compound: O=C1CSC2=NC3=C(CCc4ccccc43)C(c3cccs3)N12 (centres unmarked)
% inhibition ApPOL 90' 40, %: 45

Short answer for Cc1cccc(-c2noc(C(=O)NNC(=O)C(Cl)(Cl)Cl)n2)c1 : % inhibition ApPOL 90' 40 was 45

Input Cc1ccc(N2CCC(NC(=O)Cc3cccs3)C2=O)cc1C (centres unmarked) . Output % inhibition ApPOL 90' 40: 47

Lab note: measured % inhibition ApPOL 90' 40 of COc1ccc(/C=C/c2cc(C(=O)O)c3ccccc3n2)cc1 was 56

Notebook: O=C(c1ccccc1)N1CCc2c(nc3cc(-c4ccccc4)[nH]n3c2=O)C1 , % inhibition ApPOL 90' 40 read as 61

// recorded % inhibition ApPOL 90' 40 for COc1ccc(C2CC(c3ccc(Cl)cc3Cl)Nc3nc(N)nn32)cc1OC (centres unmarked) : 50

% inhibition ApPOL 90' 40 measured on Cc1nc(C)c2c(n1)N(CC1CCCCC1)C(=O)CC2 = 45

---

- system.name: bacteriophage T4 DNA polymerase (Enterobacteria phage T4, UniProt P04415)
- Construct: made in house
- Sequence (P04415 whole entry): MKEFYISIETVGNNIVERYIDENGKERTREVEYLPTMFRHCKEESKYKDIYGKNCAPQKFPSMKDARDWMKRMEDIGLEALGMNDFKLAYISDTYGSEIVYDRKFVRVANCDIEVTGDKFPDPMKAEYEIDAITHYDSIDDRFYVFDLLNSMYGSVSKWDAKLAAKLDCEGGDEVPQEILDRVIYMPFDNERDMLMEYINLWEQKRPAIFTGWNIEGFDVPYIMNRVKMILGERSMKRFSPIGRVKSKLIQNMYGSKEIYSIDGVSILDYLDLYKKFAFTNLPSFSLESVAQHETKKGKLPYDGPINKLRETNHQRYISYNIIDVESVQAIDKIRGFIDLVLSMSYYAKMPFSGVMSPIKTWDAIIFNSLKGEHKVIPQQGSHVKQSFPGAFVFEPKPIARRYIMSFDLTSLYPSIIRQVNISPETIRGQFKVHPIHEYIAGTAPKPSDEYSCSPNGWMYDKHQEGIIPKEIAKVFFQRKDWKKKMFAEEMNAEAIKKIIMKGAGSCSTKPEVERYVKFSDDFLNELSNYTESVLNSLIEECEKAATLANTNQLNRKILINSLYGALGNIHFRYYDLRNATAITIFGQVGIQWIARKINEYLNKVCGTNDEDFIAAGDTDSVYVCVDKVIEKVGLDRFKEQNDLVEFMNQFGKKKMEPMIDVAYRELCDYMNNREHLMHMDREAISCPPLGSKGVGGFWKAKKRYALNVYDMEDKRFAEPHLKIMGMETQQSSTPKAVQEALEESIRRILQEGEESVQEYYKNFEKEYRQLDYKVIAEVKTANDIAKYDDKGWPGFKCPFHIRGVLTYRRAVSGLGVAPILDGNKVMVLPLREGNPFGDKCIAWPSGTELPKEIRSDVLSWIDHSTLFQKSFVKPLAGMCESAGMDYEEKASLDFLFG
- measurement.description: Counter-screen against bacteriophage T4 DNA polymerase
- Type: biochemical
- experimental.context: DRC-1; read at 130'; concentration 20
- Method: Codon-optimized, exonuclease-deficient Pf-apPOL was overexpressed in E. coli BL21 (DE3) and purified as described. The protein was dialysed against two, 1-liter changes of 20 mM Tris-HCl (pH 8.0), 400 mM NaCl, and 20% glycerol. […] Each compound was tested in a dose-response format to determine IC50 values. […] T4 DNA polymerase can be produced in large quantities, and is in the same family (B-family) as the replicative human DNA polymerases (α, δ, and ε)[20].
We begin with a simple list: items and their reported % inhibition T4 130' 20.
Value expressed in %; do not type the unit.

Completed entries (count: 2):
compound: Nc1cc(Oc2ccc(O)c(N)c2)ccc1O
system.name: bacteriophage T4 DNA polymerase (Enterobacteria phage T4, UniProt P04415)
measure.unit: %
% inhibition T4 130' 20: 8.154
//
compound: O=C(c1ccccc1)N1CCc2c(nc3cc(-c4ccccc4)[nH]n3c2=O)C1
system.name: bacteriophage T4 DNA polymerase (Enterobacteria phage T4, UniProt P04415)
measure.unit: %
% inhibition T4 130' 20: -6.067

So, Cc1cccc(-c2noc(C(=O)NNC(=O)C(Cl)(Cl)Cl)n2)c1 ? Its % inhibition T4 130' 20 was -3.27

Consider COc1ccccc1CC(=O)N1CCc2c(nc3cc(-c4ccccc4Cl)[nH]n3c2=O)C1 . Its measured % inhibition T4 130' 20 is -12

According to the records, this compound O=C1CSC2=NC3=C(CCc4ccccc43)C(c3cccs3)N12 (stereo not drawn) displays % inhibition T4 130' 20 of 9.8688

The reported value for CCCc1ccc(Oc2coc3cc(OC)ccc3c2=O)cc1 in terms of % inhibition T4 130' 20 is -2.066

Lab note: Cc1cc2[nH]c(C(=O)Nc3ccc(F)cc3)c(CN3CCOCC3)c2s1 gave % inhibition T4 130' 20 of 15.4607

Query Cn1nc(-c2nc(-c3ccccc3)no2)c2c1CCN(C(=O)Cc1cccs1)C2 yields % inhibition T4 130' 20 of 14

Record CC(=O)Nc1cc(C(=O)c2cccs2)nn(-c2ccc(Cl)cc2)c1=O . Reported % inhibition T4 130' 20: 8.205

Quick note, % inhibition T4 130' 20 for Cn1nc(-c2nnc(-c3ccccc3F)o2)c2c1CCN(C(=O)c1ccccc1Cl)C2 landed at -2.59

% inhibition T4 130' 20 measured on CC(C)CC(C(=O)O)N1C(=O)C2C3C=CC(C2C1=O)C1C(=O)N(C(CC(C)C)C(=O)O)C(=O)C31 (stereo not drawn) = 0.2689

The recorded % inhibition T4 130' 20 for C#CC(C=CC)OC(=O)c1ccccc1C(=O)O (stereo not drawn) is 6.447
